# Experimental Target: PD-L1 (Homo sapiens, UniProt Q9NZQ7)
# Construct: The PD-L1 protein (18–134) was expressed in the Escherichia coli BL21 (DE3); made in house; host or cells: Escherichia coli BL21 (DE3)
# Sequence (Q9NZQ7 18-134): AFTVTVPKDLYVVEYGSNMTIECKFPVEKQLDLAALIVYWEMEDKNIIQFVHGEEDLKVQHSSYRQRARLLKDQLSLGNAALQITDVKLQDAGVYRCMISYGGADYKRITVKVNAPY
# Protocol Summary: Microscale thermophoresis (MST) affinity assay
# Type: binding
# Measurement Context: MST, labelled PD-L1 100 nM, n = 4; read-out: kD to hPD-L1
pKd: −log10 of the molar value.
For each entry below, report its pKd value.

Task: Lab note: need pKd for N#Cc1c(-c2ccc(F)cc2)csc1OCc1ccc(CN)cc1 on PD-L1 (Homo sapiens, UniProt Q9NZQ7), anyone have it?
Result: ~7.57

Task: Lab note: need pKd for Cc1c(COc2cc(OCc3cccc(C#N)c3)c(CN3C[C@@H](F)C[C@@H]3C(=O)O)cc2Cl)cccc1-c1ccc2c(c1)OCCO2 on PD-L1 (Homo sapiens, UniProt Q9NZQ7), anyone have it?
Result: ~8.10
